Tested on: MS2 coat protein
assay summary: apparent KD of MS2 coat protein; designed switch direction (-1 OFF switch, 1 ON switch): -1; higher = weaker reporter binding
study conditions: Eterna round: R95; input ligand: FMN 200 uM
This section presents sequences with their documented apparent KD of MS2 coat protein values.
reported metric: apparent KD of MS2 coat protein (nM)

INSERT INTO assay_data (sequence_code, recorded_measurement) VALUES
  ('AGAAGUAGUAACCGAUCCUACAUGAGGAUCACCCAUGUAGCUAGACGUGCACGCGACGCUCGUCAGACUACCAGAUG [salish99_TOv1_r3_029] (puzzle: Sensor v3, turn-off variant 1)', 270),
  ('AGAUGGCGAGGAUAUACAUGAGGAUCACCCAUGUGAAUAAUAAUAGUGAGGAAGAAAAGUAGAAGGCGCUGUCA [Mat - Exclusion 3 - Mod of Salish D34] (puzzle: Exclusion 3)', 357),
  ('ACAAGCUUUUUGUUCGUCUUAUAAUAAUAAAUAAAGAUAACAUGAGGAUCACCCAUGUAAAGAAGACGGCCUCAUGU [Sesor Array 20 - Jieux - Sensor v3, turn-off variant 2] (puzzle: Sensor v3, turn-off variant 2)', 785),
  ('CACAAGCUUUUUUGAUGCAUUUUAGUUGGUUUCCUUUUUACAUGAGGAUCACCCAUGUUUAUGAAGCUCGAUCUUUU [JR_SV3TOV2_Sub079] (puzzle: Sensor v3, turn-off variant 2)', 54.3),
  ('GGUCAAGAACAGAUCCGCGCUGCCCUCGACCGCUCAUUUACAUGAGGAUCACCCAUGUUUUUUGCUUGUCUUGUUAC [Vezageis] (puzzle: Sensor v3, turn-off variant 2)', 17.2),
  ('UUACGGUAGAUCGUGGCUUUUUGCUCGUCUUGUGCUACAACAUGAGGAUCACCCAUGUAGAGGUGAUCUAUUGUAUU [Grok-var2-20 mod JAL] (puzzle: Sensor v3, turn-off variant 2)', 51.9),
  ('GGUACUAACACGAAAGUGUUAGUACUAUAAGCUUGUGUUACAUGAGGAUCACCCAUGUCCUCAUAAGCUCGUCUUGU [JL-sv3-2.19 mat747 mod] (puzzle: Sensor v3, turn-off variant 2)', 45.4),
  ('GGGCGGCGGACCGUGGCUUUUUGCUCGUCUUGUGCUUCGACAUGAGGAUCACCCAUGUGGUGGUGGUCCGUUGUGGG [Grok-var2-14 mod JAL] (puzzle: Sensor v3, turn-off variant 2)', 18.2),
  ('AUAACUCUAGUCAGGAUAUGCGAGCAAGGAUUAGAGCAGAAGGGACAUGAGGAUCACCCAUGUGGUAGCUGGGU [Indiraa] (puzzle: Brourd''s mod of Exclusion 4)', 33.6),
  ('AGAGAGUCAGGAUAUCGGAGGGAGAGGAGAGGAGAGAGGGACGAGAAGGGACAUGAGGAUCACCCAUGUAGGUG [JR_Exclusion4)Sub017] (puzzle: Exclusion 4)', 263),
  ('GGUCAAGAACAGAUCCGCGCUGCCAUUGACCGCUCAUUUACAUGAGGAUCACCCAUGUUUUUUGCUCGUCUUACUAC [Edesso] (puzzle: Sensor v3, turn-off variant 2)', 20.8),
  ('AAAAAACAAGGAUAUACGAAGGAGGGUUAUCUUAAUUUUUGACAUGAGGAUCACCCAUGUAGAAGGUGUUAAAA [JR_Exclusion2_Sub011] (puzzle: Exclusion 2)', 571),
  ('GGUUGGCGAGGAUAUACAUGAGGAUCACCCAUGUGAGAGAAAAAAGUGAGGAAGAACAGUAGAAGGCGCUGACG [salish99_ex3_r3_036] (puzzle: Exclusion 3)', 162),
  ('AAAAAGGUAGGAUAUACGAAAAAAAAGGGUAGAAAAAAAACACAUGAGGAUCACCCAUGUAGAAGGACCAAAAA [salish99_ex2_r3_043] (puzzle: Exclusion 2)', 97.3),
  ('UUACAAUGUCGCUUACAAGCUUUUUGCUCGUCUUAUAUUACAUGAGGAUCACCCAUGUAGAUCAUGUGGCGUGACCU [JL ViennaUCT Maridi mod 9] (puzzle: Sensor v3, turn-off variant 2)', 165),
  ('CUAGUCCGAGGAUAUAUUAUGUGAUACAUGAGGAUCACCCAUGUUAUAUGAUGGAUGUUAGUAGAAGGCGGACUAG [Mat - Exclusion 5 - JL mod - D81] (puzzle: Exclusion 5)', 86.3),
  ('AGUACUAACACGGUUGUGUUAGUACAAUAAGCUUGUGAAACAUGAGGAUCACCCAUGUCCUCAUAAGCUCGUCUUAU [salish99_TOv2_r3_070] (puzzle: Sensor v3, turn-off variant 2)', 16.1),
  ('AAGAAACAUGAGGAUCACCCAUGUGAGGAUAUGAGUAAGAAAAGAAAAGAAAGAAGAUUCAGAAGGCACAAAGG [salish99-ex1_r3_057] (puzzle: Exclusion 1)', 94.7),
  ('UAUAACAAGCCAGAUCCUAACAUGAGGAUCACCCAUGUGCUCGUCUGAUUUUGUACUAUCAUGAGAGUGAUAGUACU [Level Boss var2-03] (puzzle: Sensor v3, turn-off variant 1)', 181);
